Data origin, for the record: paper PMC9633773

Target under test: BCL6 BTB domain (BCL6 5-129, tag removed by HRV-3C protease) (human, UniProt P41182 5-129)
Procedure summary: fluorescence polarisation; competition: 10 nM BCOR-AF633, 3 µM BCL6 BTB, unlabelled peptide varied; 20 mM Hepes/NaOH pH 8.0, 150 mM NaCl, 0.5 mM TCEP, 0.05% Tween 20, 1-2% DMSO; 2 h at room temperature
Condition set: both partners purified
Attribute measured: pIC50
In plain terms, pIC50 is the concentration in mol/L turned into minus its base-10 logarithm.

Provide measured pIC50 value, entry: EGLVATVKEAGRSIHEIPR (also called SMRT control peptide; unlabelled SMRT peptide; source: synthetic peptide, bought: Pepceuticals Ltd) [SMRT peptide (EGLVATVKEAGRSIHEIPR)] 4.80
